Measured CC50, listed per entry.
- Test system: Y > H replicon cells (Huh-7)
- Assay Procedure: Alamar blue CC50 on Y > H replicon cells
Quantity Name: CC50

C[C@H](NC(=O)OCc1ccccc1)C(=O)Nc1ccc(C2S/C(=N\c3cccc(F)c3)N(Cc3ccco3)C2=O)cc1 (some centres unmarked) [Compound 1] | > 5 µM
C[C@H](NC(=O)Cc1ccccc1)C(=O)Nc1ccc(C2S/C(=N\c3cccc(F)c3)N(Cc3ccco3)C2=O)cc1 (some centres unmarked) [Compound 124] | > 5 µM

====

- System: HCV replicon (HCV 1b-377-neo replicon cells)
- Assay Procedure: HCV replicon cell line and FRET assay
- Assay type: cell-based
- Assay Context: Hepatitis C virus, HCV replicon cell line, FRET assay; read-out: Replicon Inhibition Range EC50
Quantity Name: EC50

C[C@H](NC(=O)OCc1ccccc1)C(=O)Nc1ccc(C2S/C(=N\c3ccc(N4CCOCC4)cc3)N(c3ccccn3)C2=O)cc1 (some centres unmarked) [Compound 93] | 100 to 1000 nM
O=C(Nc1ccc(C2S/C(=N\c3cccc(Oc4ccccc4)c3)N(Cc3ccco3)C2=O)cc1)[C@@H]1CCCN1C(=O)OCc1ccccc1 (some centres unmarked) [Compound 34] | 100 to 1000 nM
CC(C)(C)/N=C1\SC(c2ccc(NC(=O)[C@@H]3CCC(=O)N3C(=O)OCc3ccccc3)cc2)C(=O)N1Cc1ccccn1 (some centres unmarked) [Compound 90] | 100 to 1000 nM
O=C(Nc1ccc(C2S/C(=N\c3cccc(F)c3)N(Cc3ccco3)C2=O)cc1)[C@@H]1CCCN1C(=O)Cc1ccccc1 (some centres unmarked) [Compound 127] | < 100 nM
O=C(Nc1ccc(C2S/C(=N\c3ccc(N4CCOCC4)cc3)N(Cc3cccnc3)C2=O)cc1)[C@@H]1CCCN1C(=O)OCc1ccccc1 (some centres unmarked) [Compound 94] | < 100 nM

====

- System: HCV 1b-377-neo replicon cells (Huh-7)
- Assay Procedure: Alamar blue conversion (cellular toxicity, CC50), wild-type replicon cells
- Assay type: cell-based
Quantity Name: CC50

C[C@H](NC(=O)Cc1ccccc1)C(=O)Nc1ccc(C2S/C(=N\c3cccc(F)c3)N(Cc3ccco3)C2=O)cc1 (some centres unmarked) | > 5 µM
C[C@H](NC(=O)OCc1ccccc1)C(=O)Nc1ccc(C2S/C(=N\c3cccc(F)c3)N(Cc3ccco3)C2=O)cc1 (some centres unmarked) | > 5 µM
